Can you tell me Percent Effect for the items I'm about to list?
test system: Wolbachia pipientis; test: Anti-Wolbachia Cell-Based Screen; format: functional; design: scale not given: in the data most compounds retested in dose-response had high values; conditions: 5 µM
Among all 48,000 compounds or so, about 13,000 (27%) showed an effect of 50% or more. Some of the results follow.
Answers are plain numbers, in %.

Recorded results for 5 compounds are shown here.
INSERT INTO results (compound, experimental_readout, endpoint_unit, result_number) VALUES
  ('Nc1cc(O)nc(CCNC(=O)CC[C@@H]2CCCN3CCCC[C@H]23)n1', 'Percent Effect', '%', -22.38),
  ('CN1CC(=O)N(c2ccccc2)Cc2c(NC3CC3)ncnc21', 'Percent Effect', '%', 112.7),
  ('Cc1csc(CN2CC[C@H]3C(=O)N(c4cccnc4)CCO[C@H]3C2)n1', 'Percent Effect', '%', 6.542),
  ('CN1CC(Nc2nc3c(cnn3-c3ccccc3)c(=O)[nH]2)CCC1=O (stereo unspecified)', 'Percent Effect', '%', 9.222),
  ('NC(=O)c1cnc(NC2CCN(c3ccccc3)CC2)c(Cl)c1', 'Percent Effect', '%', -3.801);

Below: the item to evaluate.
Fill in the blank: the reported Percent Effect of `CCc1ncc(C(=O)N(CC)CCOC)cn1` is ____.
-25.3
